Listing of entries alongside the reported inhibition of growth at 1 µM.
# Tested on: NCI-H157
# Measurement Notes: Anticancer activity against human NCI-H157 cells at 1 uM after 48 hrs by SRB assay
# Format: functional
# Condition Context: NCI-H157, 48 h, read-out: GI
Readout Label: inhibition of growth at 1 µM (%)

{"Smiles String": "Cc1ccccc1OCc1nn2c(-c3ccncc3)nnc2s1", "Recorded Value": 53.2}
{"Smiles String": "Clc1cccc(C2=Nn3c(nnc3-c3ccncc3)SC2)c1", "Recorded Value": 60.8}
{"Smiles String": "Oc1ccccc1OCc1nn2c(-c3ccncc3)nnc2s1", "Recorded Value": 35.9}
{"Smiles String": "c1coc(-c2nn3c(-c4ccncc4)nnc3s2)c1", "Recorded Value": 60.9}
{"Smiles String": "Fc1cc(Cl)ccc1-c1nn2c(-c3ccncc3)nnc2s1", "Recorded Value": 77.8}
{"Smiles String": "Nn1c(S)nnc1-c1ccncc1", "Recorded Value": 43.4}
{"Smiles String": "Fc1ccc(-c2nn3c(-c4ccncc4)nnc3s2)cc1Cl", "Recorded Value": 46.6}
{"Smiles String": "Fc1ccc(OCc2nn3c(-c4ccncc4)nnc3s2)cc1", "Recorded Value": 25.6}
{"Smiles String": "Cc1occc1-c1nn2c(-c3ccncc3)nnc2s1", "Recorded Value": 51.9}
{"Smiles String": "c1cc(-c2nnc3sc(-c4ccoc4)nn23)ccn1", "Recorded Value": 57.7}
{"Smiles String": "O=[N+]([O-])c1cccc(C2=Nn3c(nnc3-c3ccncc3)SC2)c1", "Recorded Value": 62.1}
{"Smiles String": "c1ccc2c(C3=Nn4c(nnc4-c4ccncc4)SC3)cccc2c1", "Recorded Value": 59.9}
{"Smiles String": "Clc1ccc(C2=Nn3c(nnc3-c3ccncc3)SC2)cc1Cl", "Recorded Value": 63.5}
{"Smiles String": "Fc1cc(Cl)c(-c2nn3c(-c4ccncc4)nnc3s2)cc1F", "Recorded Value": 41.4}
{"Smiles String": "CCOc1ccc(Cc2nn3c(-c4ccncc4)nnc3s2)cc1", "Recorded Value": 63.8}
{"Smiles String": "Fc1cccc(C2=Nn3c(nnc3-c3ccncc3)SC2)c1", "Recorded Value": 72.3}
{"Smiles String": "CC[C@]1(O)C[C@H]2CN(CCc3c([nH]c4ccccc34)[C@@](C(=O)OC)(c3cc4c(cc3OC)N(C=O)[C@H]3[C@@](O)(C(=O)OC)[C@H](OC(C)=O)[C@]5(CC)C=CCN6CC[C@]43[C@@H]65)C2)C1", "Recorded Value": 70.9}
{"Smiles String": "c1ccc(-c2ccc(C3=Nn4c(nnc4-c4ccncc4)SC3)cc2)cc1", "Recorded Value": 47.8}
{"Smiles String": "COc1ccc(OCc2nn3c(-c4ccncc4)nnc3s2)cc1", "Recorded Value": 61.7}
{"Smiles String": "COc1cccc(C2=Nn3c(nnc3-c3ccncc3)SC2)c1", "Recorded Value": 47.5}
{"Smiles String": "Oc1ccc(OCc2nn3c(-c4ccncc4)nnc3s2)cc1", "Recorded Value": 56.3}
{"Smiles String": "Cc1ccc(C2=Nn3c(nnc3-c3ccncc3)SC2)cc1", "Recorded Value": 53.2}

----------
# Tested on: NCI-H157
# Measurement Notes: Anticancer activity against human NCI-H157 cells at 100 uM after 48 hrs by SRB assay
# Format: functional
# Condition Context: NCI-H157, 48 h, read-out: GI
Listing of entries alongside the reported inhibition of growth at 100 µM.

{"Smiles String": "Oc1ccc(OCc2nn3c(-c4ccncc4)nnc3s2)cc1", "inhibition of growth at 100 µM": "63.7%"}
{"Smiles String": "c1ccc2c(C3=Nn4c(nnc4-c4ccncc4)SC3)cccc2c1", "inhibition of growth at 100 µM": "68.2%"}
{"Smiles String": "Fc1cc(Cl)c(-c2nn3c(-c4ccncc4)nnc3s2)cc1F", "inhibition of growth at 100 µM": "49.2%"}
{"Smiles String": "Oc1ccccc1OCc1nn2c(-c3ccncc3)nnc2s1", "inhibition of growth at 100 µM": "41.8%"}
{"Smiles String": "c1ccc(-c2ccc(C3=Nn4c(nnc4-c4ccncc4)SC3)cc2)cc1", "inhibition of growth at 100 µM": "56.9%"}
{"Smiles String": "Cc1ccccc1OCc1nn2c(-c3ccncc3)nnc2s1", "inhibition of growth at 100 µM": "59.2%"}
